Reference for the values: paper PMC9029992

# Ki values compiled below
# SYSTEM_UNDER_TEST: α-glucosidase from S. cerevisiae (GH 13)
# RUN_DESCRIPTION: Ki determination with S. cerevisiae α-glucosidase
# Assay type: biochemical
# MEASUREMENT_CONDITIONS: pH 7, substrate Glc-α-pNP, room temperature; read-out: Ki S. cer. (α-Glc) (GH 13)
# Protocol: Kinetic studies were performed at room temperature in an appropriate buffer for each enzyme (specific conditions can be found below). All reactions were performed in half-area 96-well-plates (Corning) and monitored with a Synergy H1 plate reader (BioTek). In each experiment, the appropriate concentration of the enzyme was incubated with different concentrations of the inhibitors for 2–5 minutes before initiating the reaction by the addition of the glycoside substrate. […]
Record the value in µM, omitting the unit from your answer.

Field Ki (system: α-glucosidase from S. cerevisiae (GH 13)) for entry CCCCCCCCCN[C@@H]1[C@H](O)[C@@H](O)[C@@H](O)[C@H]1CO [compound 24] = 73

Entry CN(C)c1cccc2c(S(=O)(=O)NCCCCCCN[C@@H]3[C@H](O)[C@@H](O)[C@@H](O)[C@H]3CO)cccc12 [compound 27] under α-glucosidase from S. cerevisiae (GH 13) had Ki of 16

Record for N[C@@H]1[C@H](O)[C@@H](O)[C@@H](O)[C@H]1CO [compound 22] under target or system α-glucosidase from S. cerevisiae (GH 13): Ki reported as 160

Observed Ki, α-glucosidase from S. cerevisiae (GH 13), CCCCCCN[C@@H]1[C@H](O)[C@@H](O)[C@@H](O)[C@H]1CO [compound 23] : 130
